assayed.system: Cav2.2 (N-type Ca channel) (Homo sapiens, UniProt Q00975)
Sequence (Q00975 whole entry): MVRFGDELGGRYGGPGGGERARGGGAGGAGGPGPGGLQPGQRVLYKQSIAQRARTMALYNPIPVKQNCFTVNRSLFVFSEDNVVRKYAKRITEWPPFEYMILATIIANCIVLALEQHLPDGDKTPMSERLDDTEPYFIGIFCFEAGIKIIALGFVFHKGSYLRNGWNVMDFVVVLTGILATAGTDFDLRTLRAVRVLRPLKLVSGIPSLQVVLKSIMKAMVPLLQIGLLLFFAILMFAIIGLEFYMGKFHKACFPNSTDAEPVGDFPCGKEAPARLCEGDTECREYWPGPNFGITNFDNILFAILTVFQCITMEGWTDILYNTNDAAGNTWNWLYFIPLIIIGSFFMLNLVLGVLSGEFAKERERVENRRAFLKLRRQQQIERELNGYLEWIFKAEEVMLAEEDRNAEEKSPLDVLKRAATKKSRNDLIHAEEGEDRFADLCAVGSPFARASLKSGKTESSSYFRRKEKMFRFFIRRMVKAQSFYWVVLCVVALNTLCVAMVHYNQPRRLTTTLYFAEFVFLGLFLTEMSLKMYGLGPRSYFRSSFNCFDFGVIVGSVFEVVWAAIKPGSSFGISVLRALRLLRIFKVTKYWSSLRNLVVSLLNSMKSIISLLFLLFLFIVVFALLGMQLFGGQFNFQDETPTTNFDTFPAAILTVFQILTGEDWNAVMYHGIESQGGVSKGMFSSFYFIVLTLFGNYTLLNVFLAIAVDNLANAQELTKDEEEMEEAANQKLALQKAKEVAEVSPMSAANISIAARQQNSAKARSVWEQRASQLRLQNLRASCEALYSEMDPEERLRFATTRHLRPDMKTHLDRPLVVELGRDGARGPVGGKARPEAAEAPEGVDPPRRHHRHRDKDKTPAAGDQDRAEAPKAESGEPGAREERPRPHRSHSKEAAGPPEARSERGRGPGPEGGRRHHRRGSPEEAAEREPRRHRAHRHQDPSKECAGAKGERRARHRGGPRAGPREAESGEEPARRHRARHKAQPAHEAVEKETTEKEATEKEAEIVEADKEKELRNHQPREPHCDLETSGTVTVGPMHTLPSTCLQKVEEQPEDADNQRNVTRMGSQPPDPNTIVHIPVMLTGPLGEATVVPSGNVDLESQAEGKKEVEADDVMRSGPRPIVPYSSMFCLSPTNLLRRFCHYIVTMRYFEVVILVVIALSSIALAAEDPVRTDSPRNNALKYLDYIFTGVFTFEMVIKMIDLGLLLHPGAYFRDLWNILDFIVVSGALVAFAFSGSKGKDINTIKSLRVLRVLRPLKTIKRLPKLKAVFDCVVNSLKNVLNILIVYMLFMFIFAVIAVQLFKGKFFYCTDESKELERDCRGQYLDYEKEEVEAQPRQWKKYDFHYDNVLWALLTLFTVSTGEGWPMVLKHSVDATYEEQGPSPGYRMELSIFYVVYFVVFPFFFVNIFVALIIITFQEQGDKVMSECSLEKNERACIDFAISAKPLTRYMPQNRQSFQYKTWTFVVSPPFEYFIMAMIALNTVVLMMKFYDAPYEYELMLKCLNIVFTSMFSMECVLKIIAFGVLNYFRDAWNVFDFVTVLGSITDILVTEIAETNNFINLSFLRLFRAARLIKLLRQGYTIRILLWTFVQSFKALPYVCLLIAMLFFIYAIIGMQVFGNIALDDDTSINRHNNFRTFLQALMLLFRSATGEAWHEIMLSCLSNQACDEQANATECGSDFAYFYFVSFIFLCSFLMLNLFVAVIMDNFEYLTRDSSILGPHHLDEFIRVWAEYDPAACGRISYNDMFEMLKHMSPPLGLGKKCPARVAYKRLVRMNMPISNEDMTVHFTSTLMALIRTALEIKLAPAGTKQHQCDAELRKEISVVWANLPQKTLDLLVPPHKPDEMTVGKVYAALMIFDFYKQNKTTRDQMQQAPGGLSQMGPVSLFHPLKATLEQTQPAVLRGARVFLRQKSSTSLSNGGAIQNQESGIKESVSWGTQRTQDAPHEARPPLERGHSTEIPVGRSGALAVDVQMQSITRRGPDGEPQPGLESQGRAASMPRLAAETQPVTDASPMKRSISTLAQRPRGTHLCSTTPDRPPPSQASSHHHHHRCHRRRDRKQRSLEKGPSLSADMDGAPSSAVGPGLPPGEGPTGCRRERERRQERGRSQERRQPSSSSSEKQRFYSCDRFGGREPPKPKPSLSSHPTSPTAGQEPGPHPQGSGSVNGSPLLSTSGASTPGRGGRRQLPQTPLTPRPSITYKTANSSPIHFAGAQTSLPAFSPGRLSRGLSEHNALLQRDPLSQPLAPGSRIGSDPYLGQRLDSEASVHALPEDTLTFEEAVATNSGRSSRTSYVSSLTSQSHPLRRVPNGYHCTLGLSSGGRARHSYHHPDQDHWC
Sequence (P54289 25-1103 partner): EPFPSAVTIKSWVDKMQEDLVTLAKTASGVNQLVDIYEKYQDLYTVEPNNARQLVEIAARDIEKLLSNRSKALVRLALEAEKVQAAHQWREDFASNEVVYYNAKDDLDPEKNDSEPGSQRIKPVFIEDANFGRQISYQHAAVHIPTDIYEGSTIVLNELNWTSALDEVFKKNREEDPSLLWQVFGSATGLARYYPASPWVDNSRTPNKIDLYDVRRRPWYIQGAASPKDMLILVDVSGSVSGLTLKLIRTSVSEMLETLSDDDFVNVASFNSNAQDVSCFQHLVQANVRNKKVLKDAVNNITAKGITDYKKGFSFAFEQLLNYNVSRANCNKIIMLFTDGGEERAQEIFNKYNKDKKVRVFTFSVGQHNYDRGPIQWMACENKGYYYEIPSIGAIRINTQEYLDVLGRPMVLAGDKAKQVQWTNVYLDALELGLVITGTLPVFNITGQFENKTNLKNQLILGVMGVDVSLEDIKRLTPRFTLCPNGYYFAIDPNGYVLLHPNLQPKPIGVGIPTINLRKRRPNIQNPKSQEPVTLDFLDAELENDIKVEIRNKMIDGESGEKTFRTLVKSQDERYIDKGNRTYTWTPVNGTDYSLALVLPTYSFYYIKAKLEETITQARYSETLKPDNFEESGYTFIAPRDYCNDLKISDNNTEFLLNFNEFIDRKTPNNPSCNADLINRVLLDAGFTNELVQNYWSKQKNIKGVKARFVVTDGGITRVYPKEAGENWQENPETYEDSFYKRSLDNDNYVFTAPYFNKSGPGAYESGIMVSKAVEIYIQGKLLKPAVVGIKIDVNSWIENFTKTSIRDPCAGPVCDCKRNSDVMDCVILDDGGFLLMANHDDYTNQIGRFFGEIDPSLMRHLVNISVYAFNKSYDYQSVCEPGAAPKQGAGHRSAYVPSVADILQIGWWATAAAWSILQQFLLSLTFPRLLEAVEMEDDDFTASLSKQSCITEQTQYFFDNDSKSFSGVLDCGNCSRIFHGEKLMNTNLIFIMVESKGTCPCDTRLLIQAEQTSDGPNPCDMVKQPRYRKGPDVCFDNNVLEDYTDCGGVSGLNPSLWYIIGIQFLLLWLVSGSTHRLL
Sequence (Q08289 whole entry partner): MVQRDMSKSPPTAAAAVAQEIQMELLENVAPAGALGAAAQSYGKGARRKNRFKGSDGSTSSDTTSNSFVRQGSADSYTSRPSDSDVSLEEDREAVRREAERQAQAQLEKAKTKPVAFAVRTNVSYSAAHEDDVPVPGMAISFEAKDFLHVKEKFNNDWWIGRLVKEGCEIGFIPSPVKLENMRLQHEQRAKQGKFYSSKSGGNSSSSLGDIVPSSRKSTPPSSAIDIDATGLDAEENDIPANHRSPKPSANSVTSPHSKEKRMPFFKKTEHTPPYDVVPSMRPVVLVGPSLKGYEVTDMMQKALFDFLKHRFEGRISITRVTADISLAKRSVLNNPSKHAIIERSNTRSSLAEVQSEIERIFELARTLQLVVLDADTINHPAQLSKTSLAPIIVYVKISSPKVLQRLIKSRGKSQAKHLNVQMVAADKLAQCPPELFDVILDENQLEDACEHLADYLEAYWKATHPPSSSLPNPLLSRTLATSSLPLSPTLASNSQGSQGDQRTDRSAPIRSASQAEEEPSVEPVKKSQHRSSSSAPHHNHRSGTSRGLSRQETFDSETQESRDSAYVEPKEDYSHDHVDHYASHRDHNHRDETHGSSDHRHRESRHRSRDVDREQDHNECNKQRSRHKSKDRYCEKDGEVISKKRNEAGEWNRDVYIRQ
assay.info: Patch clamp of Cav2.2 N-type Ca channel
details: Table 2
pIC50: −log10 of the molar value.
# pIC50 per entry

CC(C)(C)NC(=O)CN1CCC2(CC1)C[C@H]2NC(=O)c1cc(F)cc(C(F)(F)F)c1 (single isomer, unassigned); < 4.52
CC(C)(C)NC(=O)CN1CCC2(CC1)CC2NC(=O)c1cc(F)cc(Cl)c1 (single isomer, unassigned) [Example 128]; < 5.00
CC(C)(C)NC(=O)CN1CCC2(CC1)CC2NC(=O)c1cc(F)cc(Cl)c1 (stereo not drawn) [Example 17]; < 4.52
CC(C)(C)NC(=O)CN1CCC2(CC1)C[C@H]2NC(=O)c1cc(F)cc(Cl)c1 (single isomer, unassigned); < 4.52
CC(C)(C)NC(=O)CN1CCC2(CC1)C[C@H]2NC(=O)c1cc(Cl)cc(Cl)c1 (single isomer, unassigned); < 4.52

Entry CC(C)(C)NC(=O)CN1CCC(CNC(=O)c2cc(F)cc(Cl)c2)CC1 [Z944, reference compound] : reported pIC50 = ?
< 4.52

###

System: DRG ion channels K+
assay.info: Potassium currents in DRG neurons, patch clamp
Assay type: cell-based, rodent
details: Table 2
pIC50: −log10 of the molar value.
# pIC50 per entry

Entry CC(C)(C)CCN1C[C@@H]2[C@@H](CNC(=O)c3cc(Cl)cc(Cl)c3)[C@@H]2C1 [ML218, reference compound] : reported pIC50 = ?
4.10

Entry CC(C)(C)CCN1CCC2(CC1)CC2NC(=O)c1cc(F)cc(Cl)c1 (centres unmarked) : reported pIC50 = ?
~4.00

Entry CC(C)(C)NC(=O)CN1CCC2(CC1)CC2C(=O)Nc1cc(F)cc(C(F)(F)F)c1 (centres unmarked) : reported pIC50 = ?
< 4.52

Entry CC(C)(C)NC(=O)CN1CCC2(CC1)C[C@H]2NC(=O)c1cc(Cl)cc(Cl)c1 (single isomer, unassigned) : reported pIC50 = ?
< 4.00

Entry CC(C)(C)CCN1CCC2(CC1)C[C@H]2NC(=O)c1cc(C(F)(F)F)ccc1Cl (single isomer, unassigned) : reported pIC50 = ?
< 4.00

###

assayed.system: Cav3.2 channel (Homo sapiens)
Construct: expressed in transfected cells; host or cells: HEK-293, tetracycline inducible expression system (Invitrogen)
assay.info: Whole-cell patch clamp of T-type Cav3.2 channel expressed in HEK293 cells
Type: cell-based
details: Table 1; tested at at least 4 concentrations; read-out: IC50
endpoint.label: log10 IC50 (log10 of the value in µM)
Form field - Quantity: IC50; Unit: µM; Scale: log10

CC(C)(C)NC(=O)CN1CCC2(CC1)C[C@H]2C(=O)Nc1cc(F)cc(C(F)(F)F)c1 (single isomer, unassigned); -0.70
O=C(Nc1nnc(-c2ccccc2)o1)c1ccc(Cl)s1; -0.03
CC(C)(C)CCN1CCC2(CC1)CC2NC(=O)C12CC3CC(CC(C3)C1)C2 (stereo not shown); -1.05
CC(C)(C)OCCN1CCC2(CC1)CC2NC(=O)c1cc(Cl)cc(Cl)c1 (stereo not shown); -1.40
CC(C)(C)NC(=O)CN1CCC2(CC1)CC2NC(=O)c1cc(C(F)(F)F)cc(C(F)(F)F)c1 (stereo not shown); -0.92
CC(C)(C)NC(=O)CN1CCC2(CCC2NC(=O)c2cc(Cl)cc(Cl)c2)CC1 (stereo not shown) [Example 71]; -0.70

Field: log10 IC50 (Cav3.2 channel (Homo sapiens)). Entry: CC(C)(C)NC(=O)CN1CCC2(CC1)CC2CNC(=O)c1cc(Cl)cc(Cl)c1 (stereo not shown)
-0.16

Field: log10 IC50 (Cav3.2 channel (Homo sapiens)). Entry: CC(C)(C)CCN1CCC2(CC1)CC2NC(=O)c1cc(F)cc(Cl)c1 (stereo not shown)
-1.15

Field: log10 IC50 (Cav3.2 channel (Homo sapiens)). Entry: O=C(NC1CC12CCN(CC(O)c1ccc(F)cc1)CC2)c1cc(F)cc(Cl)c1 (single isomer, unassigned)
-1.05

Field: log10 IC50 (Cav3.2 channel (Homo sapiens)). Entry: CC(C)NC(=O)CN1CCC2(CC1)CC2NC(=O)c1cc(Cl)cc(Cl)c1 (stereo not shown)
-1.30

Field: log10 IC50 (Cav3.2 channel (Homo sapiens)). Entry: CC(C)(C)NC(=O)CN1CCC2(CC1)C[C@H]2NC(=O)c1cc(C(F)(F)F)cc(C(F)(F)F)c1 (single isomer, unassigned)
-1.10

###

assayed.system: Cav3.2 channel (Homo sapiens)
Construct: expressed in transfected cells; host or cells: HEK-293, tetracycline inducible expression system (Invitrogen)
assay.info: Whole-cell patch clamp of T-type Cav3.2 channel expressed in HEK293 cells
Format: cell-based
details: Table 1; tested at at least 4 concentrations; read-out: IC50
# pIC50 per entry
pIC50 is a log-scale quantity: -log10 of the concentration expressed in molar.

O=C(NC1CC12CCN(CCc1ccc(C(F)(F)F)cc1)CC2)c1cc(Cl)cc(Cl)c1 (centres unmarked); 6.92

Entry CC(C)(C)NC(=O)CN1CCC2(CC1)C[C@H]2NC(=O)c1cc(F)cc(Cl)c1 (single isomer, unassigned) : reported pIC50 = ?
6.06

Entry CC(C)(C)CCN1CCC2(CC1)CC2CNc1cc(Cl)cc(Cl)c1 (centres unmarked) : reported pIC50 = ?
6.89

Entry CC(C)(C)CCN1CCC2(CC1)C[C@H]2NC(=O)c1cc(C(F)(F)F)ccc1Cl (single isomer, unassigned) : reported pIC50 = ?
6.89

Entry O=C(NC1CC12CCN(CCc1ccccc1)CC2)c1cc(Cl)cc(Cl)c1 (centres unmarked) : reported pIC50 = ?
7.52

Entry CN(C(=O)c1cc(Cl)cc(Cl)c1)C1CC12CCN(CCC(C)(C)C)CC2 (centres unmarked) : reported pIC50 = ?
6.64

Entry O=C(CNc1ccccc1)Nc1nnc(-c2ccccc2)o1 : reported pIC50 = ?
5.29

Entry O=C(CN1CCC2(CC1)CC2NC(=O)c1cc(F)cc(Cl)c1)c1ccc(F)cc1 (single isomer, unassigned) : reported pIC50 = ?
6.74

Cited source for all entries: patent US10562857B2
